subjectOfTest: T1, human 4-1BB (h4-1BB) on transiently transfected CHO cells (human, UniProt Q07011 24-255)
T1 construct: also called TNFRSF9; CD137
experimentalProtocol: flow cytometry, CHO cells transfected with human 4-1BB, antibody at 10 µg/ml
Field: percentage of cells with FITC signal. Provide a value for each of the binders that follow.
Lab book: enter the figure in %, no units written.

QUERY: Answer with the recorded percentage of cells with FITC signal of 45-4B9 (antibody, V domains shown, mouse antibody purified from ascites) VH: EVQLQQSGPELVKPGASVKMSCKASGYTFTTYVMYWVKQRPGQGLEWIGYINPYNDDIRYNEKFKGKATLTSDRSSSTAYMELSSLTSEDSAVYLCARQGGDYWGQGTILTVSS VL: DVQITQSPSYLAASPGETITVNCRASKNINKYLAWYQEKPGKTNKLLIYSGSTLQSGIPSRFSGSGSGTDFTLTISSLEPEDFAVYHCQQYNEYPLTFGAGTKLEMK only.
RESULT: 56.2

QUERY: Answer with the recorded percentage of cells with FITC signal of 54-8B11 (antibody, V domains shown, mouse antibody purified from ascites) VH: QIQLVQSGPELKKPGETVKISCKASKFTFTNYGMNWVKQAPGKALKWMGWINTYTGEPTYADDFKGRFDFSLETSATTAYLQINNLKNEDTATYFCARREYYPWVFVYWGQGTLVTVSA VL: ENVLTQSPAIMSASPGEKVTMTCSASSSVSYMHWYQQKSSTSPKLWIYDTSKLASGVPGRFSGSGSGNSYSLTISSMEAEDVATYYCFQGSGYPLTFGGGTKLEIK only.
RESULT: 49.8
